# target under test: T1, Lsm2-8 Lsm8-delC (Saccharomyces cerevisiae, UniProt P38203;P57743;P40070;P40089;Q06406;P53905;P47093 …)
# T1 sequence 1: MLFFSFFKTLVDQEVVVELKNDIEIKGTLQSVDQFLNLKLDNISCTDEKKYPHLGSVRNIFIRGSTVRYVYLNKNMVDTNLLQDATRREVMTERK
# T1 sequence 2: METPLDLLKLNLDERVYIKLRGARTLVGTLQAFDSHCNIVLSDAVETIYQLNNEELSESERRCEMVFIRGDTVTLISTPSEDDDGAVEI
# T1 sequence 3: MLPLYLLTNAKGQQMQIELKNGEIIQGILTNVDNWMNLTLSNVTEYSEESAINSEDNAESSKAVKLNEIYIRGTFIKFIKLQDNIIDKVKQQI
# T1 sequence 4: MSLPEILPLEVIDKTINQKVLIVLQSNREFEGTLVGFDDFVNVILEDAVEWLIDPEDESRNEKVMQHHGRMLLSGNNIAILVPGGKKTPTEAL
# T1 sequence 5: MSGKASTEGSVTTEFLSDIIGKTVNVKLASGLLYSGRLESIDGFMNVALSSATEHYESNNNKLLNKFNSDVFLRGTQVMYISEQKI
# T1 sequence 6: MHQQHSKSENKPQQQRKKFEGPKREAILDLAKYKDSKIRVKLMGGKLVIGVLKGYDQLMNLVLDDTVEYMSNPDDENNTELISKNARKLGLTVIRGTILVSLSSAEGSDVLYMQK
# T1 sequence 7: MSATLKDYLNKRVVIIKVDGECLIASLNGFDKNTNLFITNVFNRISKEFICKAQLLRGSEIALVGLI
# test summary: fluorescence polarization; FP: 50 mM KCl or as listed 100 mM KCl in both 2x buffers, HEPES (10 mM acid + 10 mM Na salt), 10% glycerol, 1 mM TCEP, tRNA, heparin, BSA, 0.3 nM FAM-RNA; EMSA: 100 mM KCl, 20% sucrose, 20 mM bis-tris/10 mM HCl pH ~6.5, 1 mM EDTA, 1 mM TCEP, 0.01% Triton X-100, tRNA, heparin, BSA, room temperature, gel at 4 C
# assay setup: protein: recombinant; tags: as P1; copies: 1;1;1;1;1;1;1; label: 5'-FAM; single strand
pKd: −log10 of the molar value.
assay readout: pKd

[[record]]
binder = "UUUCGUUUUU (ssRNA, none (3' phosphate removed with CIP)) [U6 104-113 2',3'-cis diol]"
assay_readout = "pKd"
observed = 6.56

[[record]]
binder = "UUUCGUUUUU (ssRNA, 3' phosphate) [U6 104-113 3' phosphate]"
assay_readout = "pKd"
observed = 6.30


Taken from paper PMC5931518.
